Below, each of the molecules is paired with its reported Dmax value.
# experimental.target: BCL6 (Homo sapiens, UniProt P41182)
# Construct: endogenous in cells; host or cells: T47D breast cancer epithelial cells
# procedure.details: Immunofluorescence protocol for high content imaging of BCL6 (degradation) in T47D cells, 3 days compound treatment
# Assay type: cell-based
# run.conditions: T47D, read-out: Mean Dmax (%)** category
assay.endpoint: Dmax

>>> result("CNC(=O)COc1cc2cc(Nc3nc(N4CCC(O[C@H]5C[C@H](N6CCC(c7ccc8c(c7F)[C@H](C)N([C@H]7CCC(=O)NC7=O)C8=O)CC6)C5)CC4)ncc3Cl)ccc2n(C(C)C)c1=O")
"≥ 70%"
>>> result("CNC(=O)COc1cc2cc(Nc3nc(N4CCC(CN5CCC6(CC5)CCN6c5ccc6c(c5)CN(C5CCC(=O)NC5=O)C6=O)CC4)ncc3Cl)ccc2n(C(C)C)c1=O (centres unmarked)")
"≥ 70%"
>>> result("CNC(=O)COc1cc2cc(Nc3nc(N4CCC(O[C@H]5C[C@H](N6CCC(c7cc8c(cc7C(F)(F)F)C(=O)N(C7CCC(=O)NC7=O)C8)CC6)C5)CC4)ncc3Cl)ccc2n(C(C)C)c1=O (some centres unmarked)")
"50 to 70%"
>>> result("CNC(=O)COc1cc2cc(Nc3nc(N4CCN(CC5CCC6(CC5)CN(c5ccc7c(c5F)CN(C5CCC(=O)NC5=O)C7=O)C6)CC4)ncc3Cl)ccc2n(C(C)C)c1=O (centres unmarked)")
"50 to 70%"
>>> result("CNC(=O)COc1cc2cc(Nc3cc(N4CCC(CN5CCC6(CN(c7ccc8c(c7F)CN(C7CCC(=O)NC7=O)C8=O)C6)C(F)(F)C5)CC4)ncc3Cl)ccc2n(C(C)C)c1=O (centres unmarked)")
"50 to 70%"

====

Listing: DC50 of selected compounds
# experimental.target: BCL6 (Homo sapiens, UniProt P41182)
# Construct: endogenous in cells; host or cells: T47D breast cancer epithelial cells
# procedure.details: Immunofluorescence protocol for high content imaging of BCL6 (degradation) in T47D cells, 3 days compound treatment
# Assay type: cell-based
# run.conditions: read-out: Mean DC50 (nM)* category
assay.endpoint: DC50

>>> result("CNC(=O)COc1cc2cc(Nc3nc(N4CCC(O[C@H]5C[C@H](N6CC[C@H](c7ccc8c(c7F)CN(C7CCC(=O)NC7=O)C8=O)[C@H](OC)C6)C5)CC4)ncc3Cl)ccc2n(C(C)C)c1=O (stereo partly drawn)")
"< 10 nM"
>>> result("CNC(=O)COc1cc2c(F)c(Nc3nc(N4CCC(CN5CCC6(CC5)CC5(CN(c7ccc8c(c7)CN(C7CCC(=O)NC7=O)C8=O)C5)C6)CC4)ncc3Cl)ccc2n(C(C)C)c1=O (stereo not drawn)")
"< 10 nM"
>>> result("CNC(=O)COc1cc2cc(Nc3nc(N4CCC(O[C@H]5C[C@H](N6CCN(c7ccc8c(c7)C(=O)N(C7CCC(=O)NC7=O)C8=O)C[C@H]6C)C5)CC4)ncc3Cl)ccc2n(C(C)C)c1=O (stereo partly drawn)")
"< 10 nM"

====

# experimental.target: BCL6 (Homo sapiens, UniProt P41182)
# Construct: endogenous in cells; host or cells: T47D breast cancer epithelial cells
# procedure.details: Immunofluorescence protocol for high content imaging of BCL6 (degradation) in T47D cells, 3 days compound treatment
# Type: cell-based
# run.conditions: read-out: Mean DC50 (nM)* category
Each entry below carries its recorded DC50.
assay.endpoint: DC50

>>> result("CNC(=O)COc1cc2cc(Nc3nc(N4CCC(O[C@H]5C[C@H](N6CC7(CN(c8ccc9c(c8C)C(=O)N(C8CCC(=O)NC8=O)C9=O)C7)C6)C5)CC4)ncc3Cl)ccc2n(C(C)C)c1=O (some centres unmarked)")
"< 10 nM"
>>> result("CNC(=O)COc1cc2cc(Nc3nc(N4CCC(O[C@H]5C[C@H](N6CCCC7(CCN(c8ccc9c(c8)CN(C8CCC(=O)NC8=O)C9=O)C7)C6)C5)CC4)ncc3Cl)ccc2n(C(C)C)c1=O (some centres unmarked)")
"< 10 nM"
>>> result("CNC(=O)COc1cc2cc(Nc3nc(N4CCC(O[C@H]5C[C@H](N6CC7(CCN(c8ccc9c(c8)C(=O)N(C8CCC(=O)NC8=O)C9=O)CC7)C6)C5)CC4)ncc3Cl)ccc2n(C(C)C)c1=O (some centres unmarked)")
"< 10 nM"
>>> result("CNC(=O)COc1cc2cc(Nc3nc(N4CCC(O[C@H]5C[C@H](N6CC7(CCN(c8ccc9c(c8F)CN(C8CCC(=O)NC8=O)C9=O)C7)C6)C5)CC4)ncc3Cl)ccc2n(C(C)C)c1=O (some centres unmarked)")
"< 10 nM"
>>> result("CNC(=O)COc1cc2cc(Nc3nc(N4CCC(O[C@H]5C[C@H](N6CCC(c7ccc8c(c7)C(=O)N(C7CCC(=O)NC7=O)C8=O)C(C)(C)C6)C5)CC4)ncc3Cl)ccc2n(C(C)C)c1=O (some centres unmarked)")
"10 to 50 nM"
